- Format: in vivo, human
- Applied conditions: human, plasma, po, 40 mg
Observable: AUC (ng·h/mL)
Quick note: give the figure in ng·h/mL, leave out the unit.

Query string: Give its AUC value. Item: COc1ccc2[nH]c([S+]([O-])Cc3ncc(C)c(OC)c3C)nc2c1 (stereo not shown) [Omeprazole]
Result string: 4230
